All values here come from ChEMBL document CHEMBL1158636.

Molecular target: Gamma-secretase (Homo sapiens) (UniProt Q96BI3+Q9NZ42+Q8WW43+P49768+Q92542+P49810)
Assay: Inhibition of gamma-secretase-mediated APP cleavage in human SNC cells by ELISA
Type: cell-based
Value kind: log10 ED50 (log10 of the value in nM)
Remember, log10 of ED50, in nM.

See these solved cases before continuing.
1) O=C1c2[nH]ncc2C(C2CC2)N(S(=O)(=O)c2ccc(C(F)(F)F)cc2)C12CC2 (racemic) | 1.04
2) C[C@@H]1N(S(=O)(=O)c2ccc(C(F)(F)F)cc2)[C@H](C2CC2)c2cn[nH]c2C1(F)F (relative stereo) | 0.85
3) O=C1c2[nH]ncc2C(C2CC2)N(S(=O)(=O)c2ccc(C(F)(F)F)cn2)C12CC2 (stereo in doubt; 16h) | 3.27
4) O=S(=O)(c1ccc(C(F)(F)F)nc1)N1[C@@H](C2CC2)c2cn[nH]c2C(F)(F)[C@H]1C1CC1 (stereo in doubt) | 0.30

# log10 ED50 (compound: O=S(=O)(c1ccc(C(F)(F)F)nc1)N1C(C2CC2)c2cn[nH]c2C(F)(F)C12CC2 (racemic) ) is -0.30

# log10 ED50 (compound: C[C@@H]1c2cn[nH]c2C(=O)[C@H](C)N1S(=O)(=O)c1ccc(C(F)(F)F)nc1 (stereo in doubt) ) is 3.04

# log10 ED50 (compound: CC[C@@H]1c2cn[nH]c2C(=O)[C@H](CC)N1S(=O)(=O)c1ccc(Cl)cc1 (stereo in doubt) ) is 0.70

# log10 ED50 (compound: O=C1c2[nH]ncc2C(C2CC2)N(S(=O)(=O)c2ccc(C(F)(F)F)nc2)C1C1CCOCC1 (racemic) ) is 0.00

# log10 ED50 (compound: O=C1c2[nH]ncc2C(C2CC2)N(S(=O)(=O)c2ccc(C(F)(F)F)nc2)C12CC2 (stereo in doubt; 16f) ) is 0.60
